Entries and their measured Kd follow.
Target: T1, Mtr4WT (Saccharomyces cerevisiae, UniProt P47047 1-1073)
T1 sequence: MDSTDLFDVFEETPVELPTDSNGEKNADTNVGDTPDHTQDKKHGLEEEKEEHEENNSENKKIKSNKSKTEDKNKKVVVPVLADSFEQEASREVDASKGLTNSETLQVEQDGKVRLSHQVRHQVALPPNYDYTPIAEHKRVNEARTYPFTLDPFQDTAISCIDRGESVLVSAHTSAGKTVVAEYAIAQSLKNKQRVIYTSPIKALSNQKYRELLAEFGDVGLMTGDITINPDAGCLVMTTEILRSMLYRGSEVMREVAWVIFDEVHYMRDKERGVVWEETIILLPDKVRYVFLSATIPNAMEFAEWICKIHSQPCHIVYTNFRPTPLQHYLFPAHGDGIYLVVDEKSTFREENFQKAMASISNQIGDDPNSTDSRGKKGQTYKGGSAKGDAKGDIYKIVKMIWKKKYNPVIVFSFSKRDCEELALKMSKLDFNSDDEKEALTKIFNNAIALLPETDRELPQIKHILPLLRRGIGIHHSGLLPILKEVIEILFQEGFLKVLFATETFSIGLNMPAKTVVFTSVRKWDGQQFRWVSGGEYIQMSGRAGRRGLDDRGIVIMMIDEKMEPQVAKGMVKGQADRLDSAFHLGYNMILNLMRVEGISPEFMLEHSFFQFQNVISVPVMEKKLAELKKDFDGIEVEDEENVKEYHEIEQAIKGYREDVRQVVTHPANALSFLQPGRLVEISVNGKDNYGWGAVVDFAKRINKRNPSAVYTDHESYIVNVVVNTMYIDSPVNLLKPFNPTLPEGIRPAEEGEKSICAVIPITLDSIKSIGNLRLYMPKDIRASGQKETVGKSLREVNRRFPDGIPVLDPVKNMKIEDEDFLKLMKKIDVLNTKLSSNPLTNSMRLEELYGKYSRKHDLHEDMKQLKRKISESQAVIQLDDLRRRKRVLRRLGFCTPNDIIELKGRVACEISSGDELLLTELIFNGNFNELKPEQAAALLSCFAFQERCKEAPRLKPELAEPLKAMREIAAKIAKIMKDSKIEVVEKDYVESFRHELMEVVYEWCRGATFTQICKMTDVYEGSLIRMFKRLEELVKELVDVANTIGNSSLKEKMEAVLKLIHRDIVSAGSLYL
Assay: EMSA

[
  {
    "Binder": "GCGUCUUUACGGUGCUUAAAACAAAACAAAACAAAACAAAAA (ssRNA) [ssRNA42]",
    "Kd [nM]": 420
  },
  {
    "Binder": "dsRNA32 (dsRNA) RNA 1: GCAGGAGCCUAGCUGAAAGAUGUCCUCGGAUCGACGCGUCUUUACGGUGCUUAAAAA RNA 2: AGCACCGUAAAGACGC",
    "Kd [nM]": 570
  },
  {
    "Binder": "tRNAiMet (structured_RNA, none (hypomodified, in vitro transcript)) RNA: GGGGUUCACUGCCGUAUAGGCAGAGCGCCGUGGCGCAGUGGAAGCGCGCAGGGCUCAUAACCCUGAUGUCCUCGGAUCGAAACCGAGCGGCGCCAAAAAAAAACGC",
    "Kd [nM]": 270
  },
  {
    "Binder": "dsRNA16 (dsRNA) RNA 1: GCGUCUUUACGGUGCUUAAAAA RNA 2: AGCACCGUAAAGACGC",
    "Kd [nM]": 1140
  }
]
